tested on: Cryptococcus neoformans; experiment: Antimicrobial activity against Cryptococcus neoformans by broth microdilution method; type: functional, organism-based
observation.type: log10 MIC (log10 of the value in µg/mL)
// units: µg/mL (pre-log); metric: MIC; scale: log10

Tell me the measured log10 MIC of OC(Cn1cncn1)(Cn1ccnn1)c1ccc(F)cc1F (stereo not given) , please. -0.11

Tell me the measured log10 MIC of C[Si](C)(C)c1cn(CC(O)(Cn2cncn2)c2ccc(F)cc2F)nn1 (stereo not given) , please. 0.19

Tell me the measured log10 MIC of OC(Cc1c[nH]nn1)(Cn1cncn1)c1ccc(F)cc1F (stereo not given) , please. 0.49

Tell me the measured log10 MIC of C[C@@H]1[C@H](O)[C@@H](C)/C=C/C=C/C=C/C=C/C=C/C=C/C=C/[C@H](O[C@@H]2O[C@H](C)[C@@H](O)[C@H](N)[C@@H]2O)C[C@@H]2O[C@](O)(C[C@@H](O)C[C@@H](O)[C@H](O)CC[C@@H](O)C[C@@H](O)CC(=O)O[C@H]1C)C[C@H](O)[C@H]2C(=O)O , please. -1.22

Tell me the measured log10 MIC of C[C@H](CCC(=O)OCc1cn(CC(O)(Cn2cncn2)c2ccc(F)cc2F)nn1)[C@H]1CC[C@H]2[C@@H]3CC[C@@H]4C[C@H](O)CC[C@]4(C)[C@H]3C[C@H](O)[C@]12C (stereo not given in full) , please. -2.00

Tell me the measured log10 MIC of CCCCCCCCn1cc(CC(O)(Cn2cncn2)c2ccc(F)cc2F)nn1 (stereo not given) , please. -2.70

Tell me the measured log10 MIC of C[C@H](CCC(=O)OCc1cn(CC(O)(Cn2cncn2)c2ccc(F)cc2F)nn1)[C@H]1CC[C@H]2[C@@H]3[C@H](O)C[C@@H]4C[C@H](O)CC[C@]4(C)[C@H]3C[C@H](O)[C@]12C (stereo not given in full) , please. -0.72

Tell me the measured log10 MIC of OC(Cn1cncn1)(Cn1cncn1)c1ccc(F)cc1F , please. 0.00

Tell me the measured log10 MIC of CCCCCCc1cn(CC(O)(Cn2cncn2)c2ccc(F)cc2F)nn1 (stereo not given) , please. -1.70

Tell me the measured log10 MIC of CC(=O)N1CCN(c2ccc(OCC3COC(Cn4ccnc4)(c4ccc(Cl)cc4Cl)O3)cc2)CC1 (stereo not given) , please. -3.00

Values from ChEMBL document CHEMBL1143294
